Test: DPPH radical scavenging activity assay
Assay type: biochemical
Conditions: sample concentration 1055.000 μg/mL; DPPH in methanol, 30 min, 517 nm
From the text: DPPH Radical Scavenging Activity Assay 2,2-Diphenyl-1-picryl hydrazyl (DPPH) is an organic compound composed of a stable organic radical. […] The absorption at 517 nm disappears, and the degree of fading is quantitatively related to the number of electrons it captures. Based on this principle, a spectrophotometer is used to detect the change of the absorbance of the DPPH radical and the sample solution, and the ability of the sample to provide hydrogen atoms and scavenge free radicals can be measured. […]

# MOLECULE, UOM, Scavenging Activity (%) (n = 3)
data = [
    ("O=C(CCSCCC(=O)OCCc1ccc(O)c(O)c1)OCCc1ccc(O)c(O)c1 [A]", "%", 98.09),
    ("OCCc1ccc(O)c(O)c1 [B, 4-(2-hydroxyethyl)-1,2-benzenediol]", "%", 75.95),
    ("O=C(O)CCSCCC(=O)O [C, 3,3′-thiodipropionic acid]", "%", 38.06),
    ("O=C1O[C@H]([C@@H](O)CO)C(O)=C1O [Vc, Vitamin C]", "%", 99.49),
]

* * *

Assay: DPPH radical scavenging activity assay
Type: biochemical
Conditions: sample concentration 16.484 μg/mL; DPPH in methanol, 30 min, 517 nm
Recorded Scavenging Activity (%) (n = 3) by entry
TEST_READOUT: Scavenging Activity (%) (n = 3)

# COMPOUND, TEST_READOUT, RESULT_VALUE
measured = [
    ("O=C(CCSCCC(=O)OCCc1ccc(O)c(O)c1)OCCc1ccc(O)c(O)c1", "Scavenging Activity (%) (n = 3)", 52.29),
    ("OCCc1ccc(O)c(O)c1 [B, 4-(2-hydroxyethyl)-1,2-benzenediol]", "Scavenging Activity (%) (n = 3)", 22.78),
    ("O=C1O[C@H]([C@@H](O)CO)C(O)=C1O", "Scavenging Activity (%) (n = 3)", 44.67),
    ("O=C(O)CCSCCC(=O)O", "Scavenging Activity (%) (n = 3)", 9.72),
]
